Recorded melting point, one value per entry.

Solved cases (3 shown):
- Compound: "O=C1OC(c2ccccc2)Cc2ccccc21 (centres undefined)"
  Metric: "melting point"
  Obs Value: "88 to 90 °C"
- Compound: "NC(=S)CNC(=O)OCc1ccccc1"
  Metric: "melting point"
  Obs Value: "144 to 146 °C"
- Compound: "CSc1nnc(N)s1"
  Metric: "melting point"
  Obs Value: "176 to 180 °C"

Okay, next one:
Reported melting point of "O=C(CBr)c1ccc(Oc2ccccc2)cc1" : 49 to 50 °C

====

Recorded melting point, one value per entry.

- Molecule: "C[C@@]12CCC=C1[C@@H]1CC[C@@H]3C[C@H](O)CC[C@]3(C)[C@H]1CC2"
  Metric: "melting point"
  Obs Value: "129 to 130 °C"
- Molecule: "O=[N+]([O-])c1ccc(S)cc1"
  Metric: "melting point"
  Obs Value: "74 to 77 °C"
- Molecule: "CCCc1c(C(=O)O)cnn1-c1ccc(Cl)cc1"
  Metric: "melting point"
  Obs Value: "116 to 119 °C"
- Molecule: "FC(F)(F)c1cccc(Br)c1"
  Metric: "melting point"
  Obs Value: "1 °C"

Reported melting point of "O=Cc1c(-c2ccc(Cl)cc2)[nH]c2ccccc12" : 257 to 258 °C

Reported melting point of Cc1c(C)c2c(c(C)c1O)CCC(C)(CCCC(C)CCCC(C)CCCC(C)C)O2 (stereo unspecified) : 2.5 to 3.5 °C
